# PROTOCOL TEXT: Intrinsic clearance in human liver microsomes
# Assay type: ADME, Microsome
OBSERVABLE: microsomal CLint (µL/min/mg)

a. COc1ccc(C(C)(C)C)cc1CN[C@H]1CCCN[C@H]1c1ccccc1
b. COc1ccc(C(C)(C)C(F)(F)F)cc1CN[C@H]1CCCN[C@H]1c1ccccc1
Smaller microsomal CLint value, a vs b ? Give the label under which the chosen entry appears. b

Data credit: ChEMBL document CHEMBL1137602
